A set of molecules tested on Tyrosine-protein kinase JAK2 (Homo sapiens, UniProt O60674), with measured pIC50:
pIC50: −log10 of the molar value.

| molecule | pIC50 |
| --- | --- |
| Cc1[nH]nc2[nH]c(=O)cc([C@H]3CC[C@H](CC#N)CC3)c12 | 6.44 |
| Cc1[nH]nc2[nH]c(=O)cc([C@H]3CC[C@H](NC(=O)C4CCCC4)CC3)c12 | 5.80 |
| Cc1[nH]nc2[nH]c(=O)cc([C@H]3C[C@H]4CC[C@@H]3C4)c12 (racemic) | 6.37 |
| Cc1[nH]nc2[nH]c(=O)cc([C@H]3CC[C@H](NS(=O)(=O)CC4CCC4)CC3)c12 | 6.24 |
| Cc1[nH]nc2[nH]c(=O)cc([C@H]3C[C@H]4C[C@@H]3C[C@@H]4CC#N)c12 | 7.92 |

====

targetEntity: Tyrosine-protein kinase JAK1 (Homo sapiens)
Sequence (P23458 whole entry): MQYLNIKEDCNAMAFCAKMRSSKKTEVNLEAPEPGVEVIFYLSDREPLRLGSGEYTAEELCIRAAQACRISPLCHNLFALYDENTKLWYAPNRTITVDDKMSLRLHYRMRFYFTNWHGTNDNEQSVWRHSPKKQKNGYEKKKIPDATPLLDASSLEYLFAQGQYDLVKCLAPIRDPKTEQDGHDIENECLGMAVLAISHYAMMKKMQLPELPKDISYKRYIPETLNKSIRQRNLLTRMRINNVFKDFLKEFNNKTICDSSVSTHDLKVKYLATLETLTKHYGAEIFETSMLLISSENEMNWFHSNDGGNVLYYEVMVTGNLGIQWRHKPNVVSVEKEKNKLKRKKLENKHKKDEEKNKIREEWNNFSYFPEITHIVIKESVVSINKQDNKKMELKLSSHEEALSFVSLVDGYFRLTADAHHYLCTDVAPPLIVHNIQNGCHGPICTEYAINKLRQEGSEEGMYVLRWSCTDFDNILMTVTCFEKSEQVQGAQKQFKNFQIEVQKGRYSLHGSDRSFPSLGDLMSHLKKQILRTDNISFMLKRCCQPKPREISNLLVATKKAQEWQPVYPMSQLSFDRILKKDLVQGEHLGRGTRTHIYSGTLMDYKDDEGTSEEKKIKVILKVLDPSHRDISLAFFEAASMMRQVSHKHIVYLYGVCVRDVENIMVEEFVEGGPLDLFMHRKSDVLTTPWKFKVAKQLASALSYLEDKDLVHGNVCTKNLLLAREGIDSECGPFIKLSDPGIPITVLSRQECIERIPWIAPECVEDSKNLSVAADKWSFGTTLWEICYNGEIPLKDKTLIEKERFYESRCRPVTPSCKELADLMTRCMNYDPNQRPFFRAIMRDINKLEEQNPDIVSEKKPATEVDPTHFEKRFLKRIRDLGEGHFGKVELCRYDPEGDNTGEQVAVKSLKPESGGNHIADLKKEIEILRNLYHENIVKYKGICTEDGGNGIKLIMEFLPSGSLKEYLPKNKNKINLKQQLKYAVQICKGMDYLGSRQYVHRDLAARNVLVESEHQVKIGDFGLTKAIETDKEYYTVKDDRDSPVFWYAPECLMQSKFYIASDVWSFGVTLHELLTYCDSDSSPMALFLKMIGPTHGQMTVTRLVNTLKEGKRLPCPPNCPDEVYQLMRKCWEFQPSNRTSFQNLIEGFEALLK
pIC50: −log10 of the molar value.
Use 5 as the dividing line for pIC50, with the line itself on the condition met side and lower values as condition not met.

| molecule | classAssignment |
| --- | --- |
| Cc1[nH]nc2[nH]c(=O)cc([C@H]3CCCC[C@H]3C)c12 (racemic) | condition met |
| Cc1[nH]nc2[nH]c(=O)cc([C@H]3CC[C@H](O)CC3)c12 | condition not met |
| Cc1[nH]nc2[nH]c(=O)cc([C@H]3CC[C@H](CC(=O)N4CC(C#N)C4)CC3)c12 | condition not met |
| Cc1[nH]nc2[nH]c(=O)cc([C@H]3CC[C@H](CC(=O)N4CCC(C#N)C4)CC3)c12 (mixture of isomers) | condition not met |
| Cc1[nH]nc2[nH]c(=O)cc([C@H]3CC[C@H](OC(=O)[C@@H]4CC4(F)F)CC3)c12 | condition met |
| Cc1[nH]nc2[nH]c(=O)cc([C@H]3CC[C@H](N)CC3)c12 | condition not met |
| Cc1[nH]nc2[nH]c(=O)cc([C@H]3CC[C@H](NC(=O)[C@@H]4CC4(F)F)CC3)c12 | condition met |
| Cc1[nH]nc2[nH]c(=O)cc(C3CCCC3)c12 | condition met |
| Cc1[nH]nc2[nH]c(=O)cc(C3CC4CCC3CC4)c12 (racemic) | condition met |
| Cc1[nH]nc2[nH]c(=O)cc(-c3ccccc3)c12 | condition not met |
| Cc1[nH]nc2[nH]c(=O)cc([C@H]3CC[C@H](NC(=O)C4CC4)CC3)c12 | condition not met |
| Cc1[nH]nc2[nH]c(=O)cc([C@H]3CC[C@H](NS(=O)(=O)CC4CCC4)CC3)c12 | condition met |
| Cc1[nH]nc2[nH]c(=O)cc([C@@H]3C[C@H]4CC[C@@H]3C4)c12 (racemic) | condition met |
| CCc1[nH]nc2[nH]c(=O)cc(C3CCCCC3)c12 | condition met |
| Cc1[nH]nc2[nH]c(=O)cc([C@H]3CC[C@H](C(=O)NC4CC4)CC3)c12 | condition not met |
| Cc1[nH]nc2[nH]c(=O)cc([C@H]3CC[C@H](NC(=O)[C@H]4CC4(F)F)CC3)c12 | condition not met |
| Cc1[nH]nc2[nH]c(=O)cc([C@H]3CC[C@H](CC(=O)N4CCC(C)(C)CC4)CC3)c12 | condition met |
| Cc1[nH]nc2[nH]c(=O)cc(CC3CCC3)c12 | condition met |
